molecular target: T1, human GPC3-his tag protein (human, UniProt P51654 25-559, limits assumed); assay: SPR Biacore, mAb captured on CM5, GPC3-his dilution series (full kinetics)
T1 construct: recombinant soluble antigen used as analyte in all Biacore runs; also called recombinant GPC3 protein; rhGPC3-His; not shown: His tag

binder	kon (M⁻¹ s⁻¹)
52H5D3B8-6#-VH1+VL1 (antibody, V domains shown, humanized) VH: QVQLVQSGAEVKKPGASVKVSCKASGYTFTDYEMHWVRQAPGQGLEWMGAIHPGSGGTAYNQKFKGRVTMTRDTSTSTVYMELSSLRSEDTAVYYCARYYSYAYWGQGTLVTVSS VL: DIVMTQTPLSLSVTPGQPASISCRSSQSLVHSNGNTYLQWYLQKPGQSPQLLIYKVSNRFSGVPDRFSGSGSGTDFTLKISRVEAEDVGVYYCFQSIHVPYTFGGGTKLEIK	497000
52H5D3B8-6#-VH3+VL1 (antibody, V domains shown, humanized) VH: QVQLVQSGAEVKKPGASVKVSCKALGYTFTDYEMHWVKQAPGQGLEWIGAIHPGSGGTAYNQKFKGRVTLTADTSTSTVYMELSSLRSEDTAVYYCTRYYSYAYWGQGTLVTVSS VL: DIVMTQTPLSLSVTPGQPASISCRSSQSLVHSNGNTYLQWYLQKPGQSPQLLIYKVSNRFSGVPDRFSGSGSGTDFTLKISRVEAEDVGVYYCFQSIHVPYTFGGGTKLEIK	579000
52H5D3B8-6#-VH3+VL3 (antibody, V domains shown, humanized) VH: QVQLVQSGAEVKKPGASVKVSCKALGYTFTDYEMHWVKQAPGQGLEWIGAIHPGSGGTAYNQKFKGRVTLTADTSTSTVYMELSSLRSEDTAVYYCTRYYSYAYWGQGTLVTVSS VL: DIVMTQTPLSLSVTPGQPASISCRSSQSLVHSNGNTYLQWYLQKPGQSPKLLIYKVSNRFSGVPDRFSGSGSGTDFTLKISRVEAEDVGVYYCFQSIHVPYTFGGGTKLEIK	600000
52H5D3B8-6#-VH1+VL4 (antibody, V domains shown, humanized) VH: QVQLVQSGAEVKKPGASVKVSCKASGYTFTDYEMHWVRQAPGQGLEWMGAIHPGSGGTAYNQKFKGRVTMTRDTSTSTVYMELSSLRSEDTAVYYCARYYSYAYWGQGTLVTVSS VL: DIVMTQTPLSLSVTPGQPASISCRSSQSLVHSNGNTYLQWYLQKPGQSPKLLIYKVSNRFSGVPDRFSGSGSGTDFTLKISRVEAEDVGVYFCFQSIHVPYTFGGGTKLEIK	532000
52H5D3B8-6#-VH2+VL4 (antibody, V domains shown, humanized) VH: QVQLVQSGAEVKKPGASVKVSCKASGYTFTDYEMHWVRQAPGQGLEWIGAIHPGSGGTAYNQKFKGRVTMTADTSTSTVYMELSSLRSEDTAVYYCTRYYSYAYWGQGTLVTVSS VL: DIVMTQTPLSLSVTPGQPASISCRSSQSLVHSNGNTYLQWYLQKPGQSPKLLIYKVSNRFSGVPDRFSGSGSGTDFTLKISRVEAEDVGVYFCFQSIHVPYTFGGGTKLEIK	599000
